Where these numbers come from: patent EP4603105A1

This section presents compounds with their documented pKd values.
biological target: GDP-bound KRAS wild-type protein (Homo sapiens, UniProt P01116); test: Binding to KRAS by surface plasmon resonance (SPR), dissociation constant KD; conditions: 1:1 binding model
Sequence (P01116 1-188 isoform P01116-2): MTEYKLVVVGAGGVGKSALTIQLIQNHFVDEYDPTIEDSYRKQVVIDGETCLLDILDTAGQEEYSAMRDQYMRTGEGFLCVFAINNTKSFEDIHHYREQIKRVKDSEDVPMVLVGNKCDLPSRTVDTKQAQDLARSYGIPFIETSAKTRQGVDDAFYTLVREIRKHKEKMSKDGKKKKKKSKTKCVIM
Where a SMILES comes first, the peptide text is derived from it. Bridges are numbered along the chain shown (N, C = ends). [ ]: non-standard residue; d: D form. The star is where a group is joined. hPhe(3-Cl-4-CF3) = N[C@@H](CCc1ccc(C(F)(F)F)c(Cl)c1)C(=O)O; NPrPhe(4-CF3) = CCCN[C@@H](Cc1ccc(C(F)(F)F)cc1)C(=O)O; NMeGly(cPent) = CN[C@H](C(=O)O)C1CCCC1; NMeD = CN[C@@H](CC(=O)O)C(=O)O; NMeL = CN[C@@H](CC(C)C)C(=O)O; Morpholide = C1CN(*)CCO1; Ac5c = NC1(C(=O)O)CCCC1; Aze = O=C(O)[C@@H]1CCN1; Sar = CNCC(=O)O
Remember, pKd is on a log scale: it is -log10 of the molar concentration.

CCC[C@H]1C(=O)N[C@@H]([C@@H](C)CC)C(=O)N(C)CC(=O)N(C)[C@H]2C/C=C\CCN(C2=O)[C@@H](Cc2ccc(C(F)(F)F)cc2)C(=O)N(C)CC(=O)N[C@@H](CCc2ccc(Cl)c(Cl)c2)C(=O)N2C[C@H](OCC)C[C@H]2C(=O)NC2(CC(C)(C)C2)C(=O)N(C)[C@@H](CC(C)(C)C)C(=O)N(C)[C@H](C(=O)N(C)C)CC(=O)N1C [PP2738] ... 9.77
CCCO[C@H](C)[C@@H]1NC(=O)[C@H](COCC)N(C)C(=O)C[C@@H](C(=O)N(C)CC)N(C)C(=O)[C@H](C2CCCC2)N(C)C(=O)C2(CC(C)(C)C2)NC(=O)[C@@H]2C[C@H](C)CN2C(=O)[C@H](CCc2cc(F)c(C(F)(F)F)c(F)c2)NC(=O)CN(C)C(=O)[C@H](Cc2ccc(C)cc2)N2CC/C=C\C[C@@H](C2=O)N(C)C(=O)CN(C)C1=O [PP2426] ... 9.51

Problem: Can you share its pKd? I mean this compound: CCO[C@@H]1C[C@H]2C(=O)NC3(CC(C)(C)C3)C(=O)N(C)[C@@H](C3CCCC3)C(=O)N(C)[C@H](C(=O)N(C)C)CC(=O)N(C)[C@@H]([C@@H](C)OC)C(=O)N[C@@H]([C@@H](C)CC)C(=O)N3CCC[C@H]3C(=O)N(C)[C@H]3C/C=C\CCN(C3=O)[C@@H](Cc3ccc(C(F)(F)F)cc3)C(=O)N(C)CC(=O)N[C@@H](CCc3cc(F)c(C(F)(F)F)c(F)c3)C(=O)N2C1 [PP3205]
Solution: 9.41

Problem: Can you share its pKd? I mean this compound: CC[C@H](C)[C@@H]1NC(=O)[C@H](COC)N(C)C(=O)C[C@@H](C(=O)N2CCCCC2)N(C)C(=O)[C@H](C2CCCC2)N(C)C(=O)C2(CC(C)(C)C2)NC(=O)[C@@H]2C[C@@H](OC(C)C)CN2C(=O)[C@H](CCc2ccc(Cl)c(Cl)c2)NC(=O)CN(C)C(=O)[C@H](Cc2ccc(C(F)(F)F)cc2)N2CC/C=C\C[C@@H](C2=O)N(C)C(=O)CN(C)C1=O [PP2671]
Solution: 9.17

Problem: Can you share its pKd? I mean this compound: CCCN1C(=O)[C@@H]2CCN2C(=O)[C@@H]2CCN2C(=O)[C@H]([C@@H](C)CC)NC(=O)[C@H](CC(C)C)N(C)C(=O)C[C@@H](C(=O)N2CCOCC2)N(C)C(=O)[C@H](C2CCCC2)N(C)C(=O)C2(CCCC2)NC(=O)[C@@H]2CCCN2C(=O)[C@H](CCc2ccc(C(F)(F)F)c(Cl)c2)NC(=O)CN(C)C(=O)[C@@H]1Cc1ccc(C(F)(F)F)cc1 [PP0168] ([NMeL]I[Aze][Aze][NPrPhe(4-CF3)][Sar][hPhe(3-Cl-4-CF3)]P[Ac5c][NMeGly(cPent)][NMeD]-Morpholide; lactam N-11)
Solution: 9.17

Problem: Can you share its pKd? I mean this compound: CCOC[C@H]1C(=O)N[C@@H]([C@@H](C)CC)C(=O)N(C)CC(=O)N(C)[C@H]2C/C=C\CCN(C2=O)[C@@H](CC2CCCCC2)C(=O)N(C)CC(=O)N[C@@H](CCc2ccc(C(F)(F)F)c(OC)c2)C(=O)N2C[C@@H](C)C[C@H]2C(=O)N(C)C2(CCC2)C(=O)N(C)[C@@H](C2CCCC2)C(=O)N(C)[C@H](C(=O)N(C)C)CC(=O)N1C [PP2371]
Solution: 9.19

Problem: Can you share its pKd? I mean this compound: CCC[C@H]1C(=O)N[C@@H]([C@@H](C)CC)C(=O)N2CCC[C@H]2C(=O)N(C)[C@H]2C/C=C\CCN(C2=O)[C@@H](Cc2ccc(C)cc2)C(=O)N(C)CC(=O)N[C@@H](CCc2ccc(Cl)c(Cl)c2)C(=O)N2C[C@H](OC(C)C)C[C@H]2C(=O)NC2(CC(C)(C)C2)C(=O)N(C)[C@@H](C(CC)CC)C(=O)N(C)[C@H](C(=O)N(C)C)CC(=O)N1C [PP2641]
Solution: 8.70

Problem: Can you share its pKd? I mean this compound: CCC(CC)[C@H]1C(=O)N(C)[C@H](C(=O)N(C)C)CC(=O)N(C)[C@@H](COC)C(=O)N[C@@H]([C@@H](C)CC)C(=O)N(C)CC(=O)N(C)[C@H]2C/C=C\CCN(C2=O)[C@@H](Cc2ccc(C(F)(F)F)cc2)C(=O)N(C)CC(=O)N[C@@H](CCc2ccc(Cl)c(Cl)c2)C(=O)N2C[C@H](OC(C)C)C[C@H]2C(=O)NC2(CC(C)(C)C2)C(=O)N1C [PP2533]
Solution: 9.31

---

system: human lung cancer strain NCI-H441; test: NCI-H441 cell proliferation inhibitory activity (CellTiter-Glo, 4 days); format: cell-based; details: NCI-H441 cells, 4 days, read-out: NCl-H441 IC50
measuredAttribute: pIC50
Remember, pIC50 is on a log scale: it is -log10 of the molar concentration.

Solved cases below.
CCC[C@H]1C(=O)N[C@@H]([C@@H](C)CC)C(=O)N(C)CC(=O)N(C)[C@H]2C/C=C\CCN(C2=O)[C@@H](Cc2ccc(C)cc2)C(=O)N(C)CC(=O)N[C@@H](CCc2cc(F)c(C(F)(F)F)c(F)c2)C(=O)N2CC3(CC3)C[C@H]2C(=O)N(C)C2(CCC2)C(=O)N(C)[C@@H](C(CC)CC)C(=O)N(C)[C@H](C(=O)N(C)C)CC(=O)N1C [PP3329] ... 8.06
CCC[C@H]1C(=O)N[C@@H](C2CCCC2)C(=O)N(C)CC(=O)N(C)[C@H]2C/C=C\CCN(C2=O)[C@@H](Cc2ccc(C)cc2)C(=O)N(C)CC(=O)N[C@@H](CCc2ccc(C(F)(F)F)c(OC)c2)C(=O)N2CC3(CC3)C[C@H]2C(=O)N(C)C2(CCC2)C(=O)N(C)[C@@H](CC(C)(C)C)C(=O)N(C)[C@H](C(=O)N(C)C)CC(=O)N1C [PP3320] ... 8.34
C#CC[C@H]1C(=O)N[C@@H]([C@@H](C)CC)C(=O)N(C)CC(=O)N(C)[C@H]2C/C=C\CCN(C2=O)[C@@H](Cc2ccc(C)cc2)C(=O)N(C)CC(=O)N[C@@H](CCc2ccc(C(F)(F)F)c(Cl)c2)C(=O)N2C[C@H](OCC)C[C@H]2C(=O)N(C)C2(CCC2)C(=O)N(C)[C@@H](C2CCCC2)C(=O)N(C)[C@H](C(=O)N(C)C)CC(=O)N1C [PP3240] ... 8.64

Problem: Can you share its pIC50? I mean this compound: C#CC[C@H]1C(=O)N[C@@H]([C@@H](C)CC)C(=O)N2CCC[C@H]2C(=O)N(C)[C@H]2C/C=C\CCN(C2=O)[C@@H](Cc2ccc(C)cc2)C(=O)N(C)CC(=O)N[C@@H](CCc2cc(F)c(C(F)(F)F)c(F)c2)C(=O)N2C[C@H](OCC)C[C@H]2C(=O)N(C)C2(CCC2)C(=O)N(C)[C@@H](C2CCCC2)C(=O)N(C)[C@H](C(=O)N(C)C)CC(=O)N1C [PP3256]
Solution: 8.38

Problem: Can you share its pIC50? I mean this compound: CCC[C@H]1C(=O)N[C@@H]([C@@H](C)CC)C(=O)N(C2CC2)CC(=O)N(C)[C@H]2C/C=C\CCN(C2=O)[C@@H](Cc2ccc(C(F)(F)F)cc2)C(=O)N(C)CC(=O)N[C@@H](CCc2ccc(C(F)(F)F)c(OC)c2)C(=O)N2C[C@H](OCC)C[C@H]2C(=O)NC2(CC(C)(C)C2)C(=O)N(C)[C@@H](CC(C)(C)C)C(=O)N(C)[C@H](C(=O)N(C)C)CC(=O)N1C [PP2746]
Solution: 7.99
